Provide the recorded Kd for the entries that follow.
Biological target: T1, RBM5 RRM1-ZnF1S (Homo sapiens, UniProt P52756 94-210, I107T;C191G)
T1 sequence: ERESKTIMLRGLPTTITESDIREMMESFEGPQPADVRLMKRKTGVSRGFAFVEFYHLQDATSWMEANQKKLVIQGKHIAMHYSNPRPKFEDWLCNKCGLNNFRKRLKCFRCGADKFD
Experiment: ITC; Zn; 20 mM MES pH 6.5, 100 mM NaCl, 2 mM 2-mercaptoethanol, 25 C; protein 10-30 uM in the cell; one-site fit
Conditions: tags: none; N-terminal Met-Gly from the NcoI site (left out)
Give bare numbers, in nM.

{"binder": "UGGCUCUUCUCU (ssRNA) [GGCU_12]", "observedMeasurement": 263}

Now let's try a different one.
Entry ACUUGGCUCUUCUCU (ssRNA) [eGGCU_12] has what Kd?
641
